Test system: UACC-62 melanoma
assay_protocol: NCI tumour cell line growth inhibition, 48 h

# compound, TGI
records = [
    ("CN(C)c1ccc(N=Nc2cccc3ncccc23)cc1", "> 100 µM"),
    ("COc1cc(/C=C/C(=O)c2c(C)n([O-])c3ccc(Cl)cc3[n+]2=O)cc(OC)c1OC", "> 100 µM"),
    ("O=C1CCCC1NC(=O)C(F)(F)F (stereo not drawn)", "> 100 µM"),
]

---

Tested on: SNB-19 CNS
assay_protocol: NCI tumour cell line growth inhibition, 48 h

# compound, test_target, TGI
measured = [
    ("CCCCCCCCCC1CC(=O)NCC(=O)NC(C(C)C)C(=O)NC(CC(C)C)C(=O)NC(C)C(=O)NC(C(C)C)C(=O)O1 (configuration not stated)", "SNB-19 CNS", "> 48.2 µM"),
    ("C=C(C)[C@H](O)C(O)CC(C)[C@@H]1CCC23CC12CCC1[C@@]2(C)CCC(OC(C)=O)C(C)(C)C2CC(OC2OC(COC(C)=O)C(O)C(O)C2O)[C@]13C (some centres not stated)", "SNB-19 CNS", "11.6 µM"),
    ("CSC(=S)OC1C(CO[Si](C)(C)C(C)(C)C)OC2OC(C)(C)OC21 (configuration not stated)", "SNB-19 CNS", "47 µM"),
    ("N#CC1=C(N)Oc2c(sc3c(F)cccc23)C1c1ccc(F)cc1 (configuration not stated)", "SNB-19 CNS", "15 µM"),
    ("COc1cc([C@@H]2OC(=O)C3C2C(=O)O[C@H]3c2cc(OC)c(OC)c(OC)c2)cc(OC)c1OC (some centres not stated)", "SNB-19 CNS", "> 100 µM"),
    ("Cc1nn(C(=O)Cc2ccccc2)c2c1C(c1ccccc1[N+](=O)[O-])SC(N)=N2 (configuration not stated)", "SNB-19 CNS", "> 100 µM"),
    ("CC(=O)OC[C@@H](OC(C)=O)[C@@H](OC(C)=O)[C@H]1OC[C@@H]2C[C@H]([C@H]1OC(C)=O)N(Cc1ccccc1)O2", "SNB-19 CNS", "> 100 µM"),
    ("CC(=O)c1c[nH]cc1CO", "SNB-19 CNS", "> 10 µM"),
    ("CCOC(=O)C1=NN(c2ccccc2)C2=CC(C)=NN(C)C(=S)N21", "SNB-19 CNS", "> 100 µM"),
    ("C/C(=N\\O)C(CN1CCCCC1)C(c1ccccc1)c1c(O)c2ccccc2oc1=O (configuration not stated)", "SNB-19 CNS", "> 100 µM"),
    ("COC(=O)[C@@]1(O)C[C@H]2O[C@]1(C)n1c3ccccc3c3c4c(c5c6ccccc6n2c5c31)C(=O)NC4", "SNB-19 CNS", "4.05 µM"),
    ("O=C(NCP(=O)(O)O)c1cccnc1", "SNB-19 CNS", "> 100 µM"),
]

---

Test system: SR leukemia
assay_protocol: NCI tumour cell line growth inhibition, 48 h

# compound, test_target, unit_string, measurement_qualifier, TGI
data = [
    ("CCOC(=O)C(=CNC(=S)Nc1c(CC)cccc1CC)C(=O)OCC", "SR leukemia", "µM", ">", 100),
    ("C=C(CNCCc1ccc(O)cc1)[C@@H]1CC[C@]2(COC3CCCCO3)CC[C@]3(C)[C@H](CC[C@@H]4[C@@]5(C)CCC(N)C(C)(C)[C@@H]5CC[C@]43C)[C@@H]12 (some centres not stated)", "SR leukemia", "µM", ">", 100),
    ("CC(=O)c1c[nH]cc1CO", "SR leukemia", "µM", ">", 10),
    ("Cc1cccc2c1C(=O)OC2(C)c1cccc2ccccc12 (configuration not stated)", "SR leukemia", "µM", "=", 68.7),
    ("OC(CNc1ccnc2cc(Cl)ccc12)CNC1CCCCC1 (configuration not stated)", "SR leukemia", "µM", "=", 5.13),
    ("CCCCCCCCCCCC[n+]1ccc(C(N)=O)cc1", "SR leukemia", "µM", ">", 100),
    ("Oc1ccc(N=Nc2ccc(N=Nc3ccccc3)cc2)cc1", "SR leukemia", "µM", "=", 14),
]
